The origin of these recorded values is paper PMC5573368.

molecular target: MARK4 (Homo sapiens); construct: inferred from Ni-NTA purification; made in house; assay: Isothermal titration calorimetry; format: binding; details: ITC, two-site model, site 2; read-out: K D2 (dissociation constant)
Sequence (Q96L34 59-368): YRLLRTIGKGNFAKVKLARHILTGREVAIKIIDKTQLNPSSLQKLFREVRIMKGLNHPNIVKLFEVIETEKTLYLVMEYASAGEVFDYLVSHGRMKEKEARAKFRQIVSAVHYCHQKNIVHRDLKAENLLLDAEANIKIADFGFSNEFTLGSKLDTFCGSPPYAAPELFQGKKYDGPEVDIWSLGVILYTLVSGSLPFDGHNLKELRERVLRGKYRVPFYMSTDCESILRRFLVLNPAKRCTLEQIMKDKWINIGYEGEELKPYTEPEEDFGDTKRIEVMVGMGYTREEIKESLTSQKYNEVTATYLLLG
PARAMETER MEASURED: Kd (µM)

1. C[C@@H]1O[C@@H](OC[C@H]2O[C@@H](Oc3c(-c4ccc(O)c(O)c4)oc4cc(O)cc(O)c4c3=O)[C@H](O)[C@@H](O)[C@@H]2O)[C@H](O)[C@H](O)[C@H]1O : 0.581
2. COc1cc(C=O)ccc1O : 6.9
